System: Erysiphe graminis f sp. tritici
assayNotes: Test G: wheat powdery mildew, preventive spray on wheat seedlings
experimentalConditions: 10 ppm; wheat powdery mildew; 100 = 100% disease control, 0 = no control
Kindly state Test G rating (% disease control) for each of the entries shown.

Tell us which Test G rating (% disease control) value is on record for CC(C)(C)C(O)(Cn1cncn1)C1=NOC(COc2ncc(Cl)cn2)C1 (single isomer, unassigned) [Compound 99]
96%

Tell us which Test G rating (% disease control) value is on record for CC(C)(C)C(O)(Cn1cncn1)C1=NOC(Cc2ccccc2)C1 (single isomer, unassigned) [Compound 87]
98%

Tell us which Test G rating (% disease control) value is on record for CSc1ccc(C2CC(C(O)(Cn3cncn3)c3ccc(Cl)cc3)=NO2)cc1 (single isomer, unassigned) [Compound 108]
64%

Tell us which Test G rating (% disease control) value is on record for CC(C)(C)CC1CC(C(O)(Cn2cncn2)c2ccc(Cl)cc2)=NO1 (single isomer, unassigned) [Compound 76]
89%

Tell us which Test G rating (% disease control) value is on record for OC(Cn1cncn1)(C1=NOC(c2ccc(Cl)cc2)C1)c1ccccc1F (single isomer, unassigned) [Compound 134]
98%

Tell us which Test G rating (% disease control) value is on record for OC(Cn1cncn1)(C1=NOC(Cc2ccc(F)cc2)C1)c1ccc(Cl)cc1 (single isomer, unassigned) [Compound 198]
100%

Tell us which Test G rating (% disease control) value is on record for CCC(C)(C)C(O)(Cn1cncn1)C1=NOC(Cc2ccc(C(F)(F)F)cc2)C1 (single isomer, unassigned) [Compound 20]
99%

Tell us which Test G rating (% disease control) value is on record for OC(Cn1cncn1)(C1=NOC(c2ccc(Cl)cc2)C1)C1CCCCC1 (single isomer, unassigned) [Compound 197]
98%

Tell us which Test G rating (% disease control) value is on record for OC(Cn1cncn1)(C1=NOC(c2ccc(-n3cc(Br)cn3)cc2)C1)c1ccc(Cl)cc1 (single isomer, unassigned) [Compound 5]
100%

Tell us which Test G rating (% disease control) value is on record for CC(C)(C)C(O)(Cn1cncn1)C1=NOC(COc2ccc(Cl)cc2)C1 (stereo not drawn) [Compound 175]
100%

Tell us which Test G rating (% disease control) value is on record for CCCCC(O)(Cn1cncn1)C1=NOC(c2ccc(Cl)cc2)C1 (single isomer, unassigned) [Compound 155]
100%

Tell us which Test G rating (% disease control) value is on record for CC(C)(C)C(O)(Cn1cncn1)C1=NOC(COc2ccc(Cl)cn2)C1 (single isomer, unassigned) [Compound 96]
99%

Tell us which Test G rating (% disease control) value is on record for OC(Cn1cncn1)(C1=NOC(COc2ccc3c(c2)OCO3)C1)c1ccc(Cl)cc1 (single isomer, unassigned) [Compound 44]
64%

Tell us which Test G rating (% disease control) value is on record for OC(Cn1cncn1)(C1=NOC(COc2ccccc2)C1)c1ccc(Cl)cc1 (single isomer, unassigned) [Compound 144]
99%

Tell us which Test G rating (% disease control) value is on record for CC(C)(C)C(O)(Cn1cncn1)C1=NOC(COc2ccc(OCc3ccccc3)cc2)C1 (single isomer, unassigned) [Compound 71]
94%

Tell us which Test G rating (% disease control) value is on record for CC(C)(C)C(O)(Cn1cncn1)C1=NOC(COc2ccc(C(F)(F)F)cc2)C1 (single isomer, unassigned) [Compound 88]
99%

Tell us which Test G rating (% disease control) value is on record for CC1(C(O)(Cn2cncn2)C2=NOC(c3ccc(Cl)cc3)C2)CC1 (single isomer, unassigned) [Compound 127]
98%

Tell us which Test G rating (% disease control) value is on record for OC(Cn1cncn1)(C1=NOC(c2ccc(Cl)cc2)C1)c1cccc(Oc2ccccc2)c1 (single isomer, unassigned) [Compound 109]
93%

Tell us which Test G rating (% disease control) value is on record for CC(C)(C)CC1CC(C(O)(Cn2cncn2)C(C)(C)C)=NO1 (single isomer, unassigned) [Compound 78]
0%

Tell us which Test G rating (% disease control) value is on record for CC(C)(C)C(O)(Cn1cncn1)C1=NOC(COCc2ccccc2)C1 (single isomer, unassigned) [Compound 60]
90%

Tell us which Test G rating (% disease control) value is on record for CC(C)(C)C(O)(Cn1cncn1)C1=NOC(CCc2ccc(Cl)cc2)C1 (single isomer, unassigned) [Compound 16]
99%

Tell us which Test G rating (% disease control) value is on record for OC(Cn1cncn1)(C1=NOC(COCc2ccccc2)C1)c1ccc(Cl)cc1 (single isomer, unassigned) [Compound 57]
97%

Tell us which Test G rating (% disease control) value is on record for OC(Cn1cncn1)(C1=NOC(COc2ccc(Cl)cc2)C1)c1ccc(Cl)cc1 (single isomer, unassigned) [Compound 61]
100%

Tell us which Test G rating (% disease control) value is on record for OC(Cn1cncn1)(C1=NOC(c2ccc(-n3ccc(C(F)(F)F)n3)cc2)C1)c1ccc(Cl)cc1 (single isomer, unassigned) [Compound 149]
76%

Tell us which Test G rating (% disease control) value is on record for CC(C)(C)C(O)(Cn1cncn1)C1=NOC(Cc2ccc(Br)cc2)C1 (single isomer, unassigned) [Compound 52]
100%

Tell us which Test G rating (% disease control) value is on record for OC(Cn1cncn1)(C1=NOC(c2ccc(Cl)cc2)C1)c1ccccc1Cl (single isomer, unassigned) [Compound 151]
90%

Tell us which Test G rating (% disease control) value is on record for OC(Cn1cncn1)(C1=NOC(c2ccc(Cl)cc2)C1)c1cccc(Oc2ccccc2)c1 (single isomer, unassigned) [Compound 110]
48%

Source listed as patent US20160242416A1.
